- assayedTarget: Human Tissue Kallikrein (Homo sapiens)
- Sequence (P06870 25-262): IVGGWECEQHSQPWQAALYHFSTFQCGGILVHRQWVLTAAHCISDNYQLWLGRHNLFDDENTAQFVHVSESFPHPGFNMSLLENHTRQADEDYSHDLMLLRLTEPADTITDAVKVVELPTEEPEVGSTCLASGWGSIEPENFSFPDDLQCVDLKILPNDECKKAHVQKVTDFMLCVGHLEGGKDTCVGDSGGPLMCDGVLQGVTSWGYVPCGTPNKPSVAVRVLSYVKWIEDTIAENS
- experiment: Enzyme selectivity: inhibition of human tissue kallikrein (substrate S-2266)
- Type: biochemical
- conditionDetails: (Ki for Human Tissue Kallikrein)/(Ki for plasma kallikrein)
recordedEndpoint: Selectivity

> print(dat)
                                 smilesdata                           assayedtarget  endpointresult
1  N=C(N)N1CCC(NC(=O)[C@H](Cc2ccccc2)NC(=O)[C@@H](CC2CCCCC2)NCC(=O)O)CC1.O=C(O)C(F)(F)F  Human Tissue Kallikrein (Homo sapiens)           2,000
2  CCOc1ccc(C[C@@H](NS(C)(=O)=O)C(=O)N[C@@H](Cc2ccccc2)C(=O)NC2CCN(C(=N)N)CC2)cc1  Human Tissue Kallikrein (Homo sapiens)             210
3  CCOc1ccc(C[C@@H](NC(=O)c2ccccc2)C(=O)N[C@@H](Cc2ccccc2)C(=O)NC2CCN(C(=N)N)CC2)cc1.O=C(O)C(F)(F)F  Human Tissue Kallikrein (Homo sapiens)          13,000
4  CCOc1ccc(C[C@@H](NC(=O)CC)C(=O)N[C@@H](Cc2ccccc2)C(=O)NC2CCN(C(=N)N)CC2)cc1  Human Tissue Kallikrein (Homo sapiens)          16,000
5  CCOc1ccc(C[C@@H](NC(C)=O)C(=O)N[C@@H](Cc2ccccc2)C(=O)NC2CCN(C(=N)N)CC2)cc1  Human Tissue Kallikrein (Homo sapiens)           9,400
6  CCOc1ccc(C[C@@H](NS(=O)(=O)c2ccccc2)C(=O)N[C@@H](Cc2ccccc2)C(=O)NC2CCN(C(=N)N)CC2)cc1  Human Tissue Kallikrein (Homo sapiens)           1,500
7  CCOc1ccc(C[C@@H](NC)C(=O)N[C@@H](Cc2ccccc2)C(=O)NC2CCN(C(=N)N)CC2)cc1  Human Tissue Kallikrein (Homo sapiens)             930
8  CCOc1ccc(C[C@@H](N)C(=O)N[C@@H](Cc2ccccc2)C(=O)NC2CCN(C(=N)N)CC2)cc1.O=C(O)C(F)(F)F  Human Tissue Kallikrein (Homo sapiens)          10,000
9  CCOc1ccc(C[C@@H](N)C(=O)N[C@H](C(=O)NC2CCN(C(=N)N)CC2)[C@H](O)c2ccccc2)cc1.O=C(O)C(F)(F)F  Human Tissue Kallikrein (Homo sapiens)         >10,000
